B1: TPR 5TU (parent)
chain: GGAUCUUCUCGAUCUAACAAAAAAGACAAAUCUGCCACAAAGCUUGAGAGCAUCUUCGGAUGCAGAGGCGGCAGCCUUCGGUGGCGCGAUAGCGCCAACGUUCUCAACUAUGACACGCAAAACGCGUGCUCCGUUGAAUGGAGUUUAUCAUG

variants of: B1; experiment: polymerase ribozyme fitness, log enrichment relative to wild type (log ratio); higher = more active; in vitro selection for triplet polymerase activity
Fewer inactive variants are shown than the library holds.
In this scheme, each record receives a class according to its polymerase ribozyme fitness (log ratio); the ranges are class 0 = under -3, class 1 = from -3 up to -0.7, class 2 = -0.7 and over

U13C C51A G83C A89G C125U :: class 0
U31G G42C G50C C57A C79G G80C G136C :: class 0
A52C G84A G88C :: class 0
A19C U56C C96U G133C :: class 1
U4A G11C A20U A28U G143U U146G :: class 0
U15C A22C C85U U127C :: class 1
C51U G81C C85U G117C U134A A137G :: class 0
C8U A19C G50A C96U :: class 0
U6G G48C A52G C96A A121U G140A :: class 0
U31A G46C C95U :: class 1

Lab note: which band did A39U U45G C85A A91C G92C land in?
class 0

Lab log: A3U C14G A30U U55G C95U — assign polymerase ribozyme fitness (log ratio) category
class 0

Which category does the recorded polymerase ribozyme fitness (log ratio) put G83C C93G in?
class 0

Given G70C U134G , name the class its polymerase ribozyme fitness (log ratio) places it in.
class 0

Hey, which category is C63U C125U G133U in, do you know?
class 0

Attribution: the RNAGym collection of RNA variant scans (doi:10.1073/pnas.2313332121)
